Biological target: Human OTUB1 wild-type (Homo sapiens)
Construct: His tag (N); made in house; host or cells: E. coli BL21-CodonPlus (DE3)-RIPIL
Sequence (Q96FW1 whole entry): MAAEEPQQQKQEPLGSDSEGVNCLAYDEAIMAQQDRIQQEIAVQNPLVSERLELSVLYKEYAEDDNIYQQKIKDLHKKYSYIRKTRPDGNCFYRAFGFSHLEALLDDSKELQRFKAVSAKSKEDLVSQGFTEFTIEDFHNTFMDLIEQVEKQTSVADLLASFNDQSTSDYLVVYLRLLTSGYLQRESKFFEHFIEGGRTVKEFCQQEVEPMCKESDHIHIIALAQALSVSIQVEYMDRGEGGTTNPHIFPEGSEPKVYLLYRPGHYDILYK
Assay: Covalent modification of OTUB1 (adduct formation), mass spectrometry-based assay (OTUB1 covalent binders; selected CFTR or cGAS based bivalent compounds)
Type: binding
Conditions: covalent adduct formation with OTUB1 protein
Procedure: OTUB1 covalent binders were tested for their ability to form the covalent adduct with OTUB1 protein using a mass-spectrometry based assay. Example 389. Assessment of the Covalent Modification of OTUB1 Protein by Selected OTUB1 Covalent Binders Using a Mass Spectrometry-Based Assay (FIG. 1) OTUB1 protein (10 μM) was incubated with selecting compounds (2500 μM) at RT for 1 h. The adduct was qualified by mass spectrometry-based assays. Example 398. […]
% of OTUB1 modified strictly under 40% means Y; at 40% or over means N.

A selection of reference data follows.
Cc1ccc(C(=O)N2CC(NC(=O)C#CCN(C)C)C2)s1 [XS224-144]    N
CN(C)C/C=C/C(=O)N1CCN(c2cc3ccccc3s2)C(=O)C1 [XS175-179]    N
Cc1cccc(N2CCN(C(=O)/C=C/CN(C)C)CC2=O)c1 [XS165-99]    Y
CN(C)C/C=C/C(=O)N1CCN(c2ccc(-c3ccccc3)s2)C(=O)C1 [XS175-158]    N
Cc1ccc(N2CC3CCC(C2=O)N3C(=O)C#CC(C)(C)N(C)C)s1 (centres unmarked) [XS209-74]    N

For this compound, is % of OTUB1 modified lower than 40%? Cc1cccc(N2CCN(C(=O)/C=C/CN(C)C)CC2=O)n1 [XS165-109]
Y

For this compound, is % of OTUB1 modified lower than 40%? Cc1ccc(N2CCN(C(=O)/C=C/CN(C)C)CC2)s1 [XS165-172]
Y

For this compound, is % of OTUB1 modified lower than 40%? Cc1ccc(NC(=O)C2(C)CN(C(=O)/C=C/CN(C)C)C2)s1 [XS209-21]
Y

For this compound, is % of OTUB1 modified lower than 40%? Cc1ccc(N2CCCN(C(=O)/C=C/CN(C)C)CC2=O)s1 [XS175-120]
N

For this compound, is % of OTUB1 modified lower than 40%? Cc1ccc(N2CCN(C(=O)/C=C/CN(C)C)CC2=O)s1 [XS165-105]
N

For this compound, is % of OTUB1 modified lower than 40%? CN(C)C(C)(C)C#CC(=O)N1CC(NC(=O)c2cc3ccccc3s2)C1 [XS224-156]
N

For this compound, is % of OTUB1 modified lower than 40%? Cc1ccc(N2CCN(C(=O)/C(C#N)=C/C(C)(C)C)CC2=O)s1 [XS165-177]
Y

For this compound, is % of OTUB1 modified lower than 40%? CN(C)C/C=C/C(=O)N1C2CC1CN(C(=O)c1ccc(C#CCO)s1)C2 [XS197-94]
N

For this compound, is % of OTUB1 modified lower than 40%? CN(C)C/C=C/C(=O)N1C2CC1CN(C(=O)c1csc3ccccc13)C2 [XS190-47]
N

For this compound, is % of OTUB1 modified lower than 40%? Cc1ccc(NC(=O)C2CCN(C(=O)CCl)CC2)s1 [XS185-4]
N
